- Recorded Conditions: in ethylene glycol, 293.15 K
Metric Name: solubility (mole fraction)

Req: Given the entry CN1COCNC1=N[N+](=O)[O-] , report its measured solubility (mole fraction).
Resp: 0.00157

###

- Recorded Conditions: in isopropanol, 323.15 K
Metric Name: solubility (mole fraction)
Just the number.

Req: Look up solubility (mole fraction) for this compound: CN1COCNC1=N[N+](=O)[O-]
Resp: 0.00303

###

- Recorded Conditions: in methyl acetate, 323.15 K
Metric Name: solubility (mole fraction)
// print number alone

Req: Would you mind telling me what solubility (mole fraction) value was observed for CN1COCNC1=N[N+](=O)[O-] ?
Resp: 0.0157

###

- Recorded Conditions: in ethanol, 313.15 K
Metric Name: solubility (mole fraction)
Answer with a bare number; do not write a unit.

Req: Fill in the blank: the reported solubility (mole fraction) of CN1COCNC1=N[N+](=O)[O-] is ____.
Resp: 0.00379

###

- Recorded Conditions: in ethylene glycol, 313.15 K
Metric Name: solubility (mole fraction)
Quick one: just the number, no unit, thanks!

Req: I have this molecule here, CN1COCNC1=N[N+](=O)[O-] , and I need its recorded solubility (mole fraction).
Resp: 0.00447

###

- Recorded Conditions: in n-propanol, 323.15 K
Metric Name: solubility (mole fraction)
Kindly provide the number alone.

Req: Given CN1COCNC1=N[N+](=O)[O-] , state its recorded solubility (mole fraction).
Resp: 0.00441

###

- Recorded Conditions: in isopropanol, 298.15 K
Metric Name: solubility (mole fraction)
Please reply with the value in numeric form only.

Req: What measured solubility (mole fraction) goes with CN1COCNC1=N[N+](=O)[O-] ?
Resp: 0.0013

###

- Recorded Conditions: in ethylene glycol, 318.15 K
Metric Name: solubility (mole fraction)

Req: Query (compound): CN1COCNC1=N[N+](=O)[O-] ; field requested: solubility (mole fraction)
Resp: 0.00527

###

- Recorded Conditions: in DMSO, 323.15 K
Metric Name: solubility (mole fraction)

Req: Please give the measured solubility (mole fraction) for this molecule: CN1COCNC1=N[N+](=O)[O-]
Resp: 0.14

###

- Recorded Conditions: in methyl acetate, 318.15 K
Metric Name: solubility (mole fraction)

Req: Would you mind telling me what solubility (mole fraction) value was observed for CN1COCNC1=N[N+](=O)[O-] ?
Resp: 0.0133

###

- Recorded Conditions: in DMF, 298.15 K
Metric Name: solubility (mole fraction)

Req: Query: solubility (mole fraction); subject: CN1COCNC1=N[N+](=O)[O-]
Resp: 0.113

###

- Recorded Conditions: in dichloromethane, 318.15 K
Metric Name: solubility (mole fraction)

Req: // lookup solubility (mole fraction) for CN1COCNC1=N[N+](=O)[O-]
Resp: 0.0265

###

- Recorded Conditions: in isopropanol, 293.15 K
Metric Name: solubility (mole fraction)
I only need the number, thanks.

Req: Look at this molecule and give its reported solubility (mole fraction). CN1COCNC1=N[N+](=O)[O-]
Resp: 0.00101

###

- Recorded Conditions: in ethylene glycol, 298.15 K
Metric Name: solubility (mole fraction)

Req: What value of solubility (mole fraction) has been reported for the following compound? CN1COCNC1=N[N+](=O)[O-]
Resp: 0.00248

###

- Recorded Conditions: in methanol, 313.15 K
Metric Name: solubility (mole fraction)
Please give the numeric answer without any surrounding text.

Req: Sample CN1COCNC1=N[N+](=O)[O-] — what was its solubility (mole fraction)?
Resp: 0.00682
